Source listed as patent US6358885B1.

Test system: rape
TEST: Test C preemergence/postemergence greenhouse plant response rating 0 to 100
Type: in vivo, Brassica napus
CONDITION DESCRIPTION: Rate 16 g/ha; POSTEMERGENCE
MEASUREMENT TYPE: Plant response rating (0 to 100), Rape

rape assay, molecule COC(=O)C(C)Oc1cc(-c2nn3c(c2Cl)CCCC3)c(F)cc1Cl (centres unmarked) , recorded Plant response rating (0 to 100), Rape = 70

Tested system rape; Plant response rating (0 to 100), Rape recorded for `CCOC(=O)COc1cc(-c2nn3c(c2Cl)CCCC3)c(F)cc1Cl` was 50

# lookup: `C=C(Cl)COc1cc(-c2nn3c(c2Cl)CCCC3)c(F)cc1Cl` on rape, Plant response rating (0 to 100), Rape = 50

Bench note, rape: `CCN1C(=O)COc2cc(F)c(-c3nn4c(c3Cl)CCCC4)cc21` , Plant response rating (0 to 100), Rape reads 100

Bench note, rape: entry `CC(C)OC(=O)c1cc(-c2nn3c(c2Cl)CCCC3)c(F)cc1Cl` , its Plant response rating (0 to 100), Rape = 70

----------
Tested on: rape
TEST: Test B preemergence/postemergence greenhouse plant response rating 0 to 10
Format: in vivo, Brassica napus
CONDITION DESCRIPTION: POSTEMERGENCE, Rate 50 g/ha; 0 to 10 scale
The threshold is inclusive: Plant response rating, Rape of exactly 6 counts as true; values below receive false.

State whether the measured Plant response rating, Rape reaches 6, counting equality as reaching it, for C#CC(C)N1C(=O)COc2cc(F)c(-c3nn4c(c3Cl)CCCC4)cc21 (stereo not drawn) [Compound 50]
true

Check the entry COCCOc1cc(-c2nn3c(c2Cl)CCCC3)c(Cl)cc1Cl [Compound 72] : does Plant response rating, Rape equal or exceed 6?
true

API: above_or_equal(metric=Plant response rating, Rape, cutoff=6) for item C#CCN1C(=O)COc2cc(F)c(-c3nn4c(c3Cl)CCCC4)cc21 [Compound 34]
true

Evaluate C=CCN1C(=O)COc2cc(F)c(-c3nn4c(c3Br)CCCC4)cc21 [Compound 41] : Plant response rating, Rape at minimum 6?
true

Dear colleague, could you confirm whether COC(=O)c1cc(-c2nn3c(c2Cl)CCCC3)c(F)cc1Cl [Compound 43] has Plant response rating, Rape at or above 6?
true

Plant response rating, Rape >= 6 for COCCN1C(=O)COc2cc(F)c(-c3nn4c(c3Cl)CCCC4)cc21 [Compound 53] ?
true

Form field: Plant response rating, Rape at least 6? Entry: C=CCOc1cc(-c2nn3c(c2Br)CCCC3)c(F)cc1Cl [Compound 37]
true

State whether the measured Plant response rating, Rape reaches 6, counting equality as reaching it, for Oc1cc(-c2nn3c(c2Cl)CCCC3)c(Cl)cc1Cl [Compound 68]
false

Please indicate if the recorded Plant response rating, Rape for CCC(=O)Oc1cc(-c2nn3c(c2Cl)CCCC3)c(F)cc1Cl [Compound 47] meets or exceeds 6.
false

Assess whether reported Plant response rating, Rape for FCCCOc1cc(-c2nn3c(c2Cl)CCCC3)c(F)cc1Cl [Compound 79] sits at 6 or higher.
true

----------
Test system: downy brome
TEST: Test C preemergence/postemergence greenhouse plant response rating 0 to 100
Format: in vivo, Bromus tectorum
CONDITION DESCRIPTION: POSTEMERGENCE; Rate 1 g/ha
MEASUREMENT TYPE: Plant response rating (0 to 100), Downy Brome
Write the number on its own, no unit after it.

Noted for C#CCN1C(=O)COc2cc(F)c(-c3nn4c(c3Cl)CCCC4)cc21 [Compound 34] : its Plant response rating (0 to 100), Downy Brome reads 20

Lab note: C=CCN1C(=O)COc2cc(F)c(-c3nn4c(c3Cl)CCCC4)cc21 [Compound 33] gave Plant response rating (0 to 100), Downy Brome of 30

What the record says about CCN1C(=O)COc2cc(F)c(-c3nn4c(c3Cl)CCCC4)cc21 [Compound 54] : Plant response rating (0 to 100), Downy Brome is 10

Entry under test: COCN1C(=O)COc2cc(F)c(-c3nn4c(c3Br)CCCC4)cc21 [Compound 67] . Its Plant response rating (0 to 100), Downy Brome was 20

----------
Test system: common purslane
TEST: Test G preemergence/postemergence greenhouse plant response rating 0 to 100
Type: in vivo, Portulaca oleracea
CONDITION DESCRIPTION: PREEMERGENCE, Rate 250 g/ha, 0 to 100 scale
Give measured Plant response rating, Cmn Purslane for each item. Keep answers brief.
The answer should be a number; do not append a unit.

# Plant response rating, Cmn Purslane of `Fc1cc(Cl)c(OCc2ccccc2)cc1-c1nn2c(c1Cl)CCCC2` = 0

The recorded Plant response rating, Cmn Purslane for `CCS(=O)(=O)Oc1cc(-c2nn3c(c2Cl)CCCC3)c(F)cc1Cl` is 0

Memo: `C#CCN1C(=O)COc2cc(F)c(-c3nn4c(c3Cl)CCCC4)cc21` , reported Plant response rating, Cmn Purslane: 100

So, `Fc1cc(Cl)c(OC2CCCC2)cc1-c1nn2c(c1Cl)CCCC2` ? Its Plant response rating, Cmn Purslane was 0

----------
System: soybean
TEST: Test B preemergence/postemergence greenhouse plant response rating 0 to 10
Assay type: in vivo, Glycine max
CONDITION DESCRIPTION: POSTEMERGENCE, Rate 50 g/ha; 0 to 10 scale
MEASUREMENT TYPE: Plant response rating, Soybean
// no unit, no text: just the number

Plant response rating, Soybean reported for this compound CC(=O)c1cc(-c2nn3c(c2Cl)CCCC3)c(F)cc1Cl [Compound 45] : 8

COCCN1C(=O)COc2cc(F)c(-c3nn4c(c3Cl)CCCC4)cc21 [Compound 53] has a reported Plant response rating, Soybean of 9

response.value for C#CC(C)Oc1cc(-c2nn3c(c2Cl)CCCC3)c(F)cc1Cl (centres unmarked) [Compound 36] (field: Plant response rating, Soybean) = 9

Reported Plant response rating, Soybean of C=CCOc1cc(-c2nn3c(c2Cl)CCCC3)c(Cl)cc1Cl [Compound 71] : 6

Memo: C=C(Cl)COc1cc(-c2nn3c(c2Cl)CCCC3)c(F)cc1Cl [Compound 40] , reported Plant response rating, Soybean: 5

----------
Consider the following molecules; for each one, report its Plant response rating (0 to 10 scale), Sugar beet.
System: sugar beet
TEST: Test B preemergence/postemergence greenhouse plant response rating 0 to 10
Assay type: in vivo, Beta vulgaris
CONDITION DESCRIPTION: PREEMERGENCE, Rate 200 g/ha
Number only, please.

Plant response rating (0 to 10 scale), Sugar beet reported for this molecule `COCOc1cc(-c2nn3c(c2Cl)CCCC3)c(F)cc1Cl` : 10

Consider `CCOC(=O)c1cc(-c2nn3c(c2Cl)CCCC3)c(F)cc1Cl` . Its measured Plant response rating (0 to 10 scale), Sugar beet is 10

Plant response rating (0 to 10 scale), Sugar beet in this record for `CC(C)(C)C(=O)COc1cc(-c2nn3c(c2Cl)CCCC3)c(Cl)cc1Cl` : 3

Plant response rating (0 to 10 scale), Sugar beet recorded for this molecule, C#CC(C)Oc1cc(-c2nn3c(c2Cl)CCCC3)c(Cl)cc1Cl (stereo not shown) , is 10

According to the records, this molecule `Oc1cc(-c2nn3c(c2Cl)CCCC3)c(Cl)cc1Cl` displays Plant response rating (0 to 10 scale), Sugar beet of 9

// Plant response rating (0 to 10 scale), Sugar beet lookup, molecule = `CCOCOc1cc(-c2nn3c(c2Cl)CCCC3)c(F)cc1Cl` , result: 10

Form: molecule = `O=C1COc2cc(F)c(-c3nn4c(c3Br)CCCC4)cc2N1` ; Plant response rating (0 to 10 scale), Sugar beet = 9

----------
System: wild buckwheat
TEST: Test C preemergence/postemergence greenhouse plant response rating 0 to 100
Type: in vivo, Polygonum convolvulus
CONDITION DESCRIPTION: POSTEMERGENCE; Rate 4 g/ha
MEASUREMENT TYPE: Plant response rating (0 to 100), Wild buckwheat
Response field accepts a number only; no unit should be typed.

Entry under test: `C#CCOc1cc(-c2nn3c(c2Br)CCCC3)c(F)cc1Cl` . Its Plant response rating (0 to 100), Wild buckwheat was 50

Lab book: Plant response rating (0 to 100), Wild buckwheat of `C#CCN1C(=O)COc2cc(F)c(-c3nn4c(c3Br)CCCC4)cc21` noted as 100

Documented Plant response rating (0 to 100), Wild buckwheat of `CCN1C(=O)COc2cc(F)c(-c3nn4c(c3Cl)CCCC4)cc21` : 100

For `COC(=O)c1cc(-c2nn3c(c2Cl)CCCC3)c(F)cc1Cl` the compound record lists Plant response rating (0 to 100), Wild buckwheat as 60

Plant response rating (0 to 100), Wild buckwheat measured on C#CC(C)N1C(=O)COc2cc(F)c(-c3nn4c(c3Cl)CCCC4)cc21 (stereo not shown) = 20

Kindly note the recorded Plant response rating (0 to 100), Wild buckwheat for `CC(C)COc1cc(-c2nn3c(c2Cl)CCCC3)c(F)cc1Cl` , which is 50

Lab note: CCC(C)Oc1cc(-c2nn3c(c2Cl)CCCC3)c(F)cc1Cl (stereo not shown) gave Plant response rating (0 to 100), Wild buckwheat of 60
